Numbers sourced from patent US20240254138A1.

Overview of recorded kinact/KI for various molecules
molecular target: CDK7/cyclinH/MAT1 trimeric complex (Homo sapiens, UniProt P50613); test: In vitro CDK7 assay, potency of irreversible covalent inhibitors (kinact/KI), coupled PK/LDH ADP readout at 340 nm; details: read-out: CDK7 (20 nM enz.) (kobs/[I], M^−1*s^−1), 20 nM enzyme
Sequence (P50613 whole entry): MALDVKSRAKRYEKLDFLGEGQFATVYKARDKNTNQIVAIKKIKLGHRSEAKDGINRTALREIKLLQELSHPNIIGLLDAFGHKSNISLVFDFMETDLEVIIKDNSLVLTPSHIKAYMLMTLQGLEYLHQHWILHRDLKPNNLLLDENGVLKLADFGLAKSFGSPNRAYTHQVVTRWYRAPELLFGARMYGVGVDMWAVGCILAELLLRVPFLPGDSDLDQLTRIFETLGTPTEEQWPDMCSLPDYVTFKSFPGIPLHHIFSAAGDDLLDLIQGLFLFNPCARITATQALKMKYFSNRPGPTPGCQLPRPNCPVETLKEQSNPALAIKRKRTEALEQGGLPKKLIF
Sequence (P51946 whole entry partner): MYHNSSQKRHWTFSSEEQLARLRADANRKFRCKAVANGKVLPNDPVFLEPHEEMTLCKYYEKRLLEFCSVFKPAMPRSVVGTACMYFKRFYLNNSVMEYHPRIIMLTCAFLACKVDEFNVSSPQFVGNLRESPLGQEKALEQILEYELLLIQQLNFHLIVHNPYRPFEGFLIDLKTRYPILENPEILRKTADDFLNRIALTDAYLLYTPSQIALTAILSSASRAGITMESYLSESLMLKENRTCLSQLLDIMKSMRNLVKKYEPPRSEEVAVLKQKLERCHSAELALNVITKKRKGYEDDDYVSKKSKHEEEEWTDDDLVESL
Sequence (P51948 whole entry partner): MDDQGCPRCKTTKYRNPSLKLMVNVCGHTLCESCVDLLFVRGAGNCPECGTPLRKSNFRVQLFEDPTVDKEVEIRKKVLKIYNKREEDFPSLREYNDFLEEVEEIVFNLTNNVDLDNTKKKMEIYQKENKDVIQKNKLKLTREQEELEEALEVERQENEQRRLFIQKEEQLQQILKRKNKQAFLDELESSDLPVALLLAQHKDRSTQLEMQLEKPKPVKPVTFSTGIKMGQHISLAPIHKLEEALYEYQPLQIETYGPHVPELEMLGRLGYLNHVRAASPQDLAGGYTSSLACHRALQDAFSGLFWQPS
QUANTITY_NAME: kinact/KI

C=CC(=O)N1CC(N2CCC(c3cc4c(c(-c5ncc[nH]5)n3)OCc3c(N5CCOCC5)ccnc3N4)CC2)C1 [Compound 378]; 1740 M⁻¹ s⁻¹
C=CC(=O)N1CC(N2CCC(c3ccc4c(c3)Nc3nccc(C5CCOCC5)c3[C@@H](C)O4)CC2)C1 (single isomer, unassigned) [Compound 97]; 1510 M⁻¹ s⁻¹
C=CC(=O)N1CC[C@@H](N2CC(c3cc(C)c4c(c3)Nc3nccc(N5CCOCC5)c3[C@@H](C)O4)C2)C1 (single isomer, unassigned) [Compound 230]; 791 M⁻¹ s⁻¹
C=C(C(=O)N1CC(N2CCC(c3cc4c(c(C)n3)OCc3c(N5CCOCC5)ccnc3N4)CC2)C1)n1cccn1 [Compound 496]; 680 M⁻¹ s⁻¹
C#CCN(C(=O)C=C)c1ccc(C(=O)Nc2ccc3c(c2)Nc2nccc(C4CCOCC4)c2CO3)cc1 [Compound 17]; 1470 M⁻¹ s⁻¹
C=CC(=O)N1CC(N2CCC(c3cc4c(c(-c5ncc[nH]5)c3)OCc3c(N5CCOCC5)ccnc3N4)CC2)C1 [Compound 275]; 921 M⁻¹ s⁻¹
C=CC(=O)N1CC[C@H](N2CC(c3cc(C)c4c(c3)Nc3nccc(N5CCOCC5)c3[C@@H](C)O4)C2)C1 (single isomer, unassigned) [Compound 388]; 1270 M⁻¹ s⁻¹
C=CC(=O)N1CC(N2CCC(c3cc(C#N)c4c(c3)Nc3nccc(C5CCOCC5)c3CO4)CC2)C1 [Compound 125]; 1230 M⁻¹ s⁻¹
C=CC(=O)N1CCC(N2CC(c3cc4c(c(-c5ncc[nH]5)n3)OCc3c(N5CCOCC5)ccnc3N4)C2)CC1 [Compound 366]; 339 M⁻¹ s⁻¹
C=CC(=O)N1CC(N2CCC(c3cc(Cl)c4c(c3)Nc3nccc(C5CCOCC5)c3CO4)CC2)C1 [Compound 101]; 1110 M⁻¹ s⁻¹
C=CC(=O)N1CC(N2CC(c3cc(C#N)c4c(c3)Nc3nccc(C5CCOCC5)c3[C@@H](C)O4)C2)C1 (single isomer, unassigned) [Compound 292]; 802 M⁻¹ s⁻¹
CC#CC(=O)N1CCC(N2CCC(c3cc4c(c(C)n3)OCc3c(N5CCOCC5)ccnc3N4)CC2)CC1 [Compound 325]; 1280 M⁻¹ s⁻¹
C=CC(=O)N1CC(N2CCC(c3cc(C#N)c4c(c3)Nc3nccc(N5CCOCC5)c3[C@@H](C)O4)CC2)C1 (single isomer, unassigned) [Compound 354]; 2670 M⁻¹ s⁻¹
CC#CC(=O)N1CC(n2cc(-c3cc(C#N)c4c(c3)Nc3nccc(N5CCOCC5)c3[C@H](C)O4)cn2)C1 (single isomer, unassigned) [Compound 449]; 328 M⁻¹ s⁻¹
C=CC(=O)N1CCC(N2CCC(c3cc(C)c4c(c3)Nc3nccc(N5CCOCC5)c3CO4)CC2)C1 (centres unmarked) [Compound 78]; 908 M⁻¹ s⁻¹
C=CC(=O)N1CC(N2CC(c3cc(C)c4c(c3)Nc3nccc(C5CCOCC5)c3[C@@H](C)O4)C2)C1 (single isomer, unassigned) [Compound 251]; 1110 M⁻¹ s⁻¹
C=CC(=O)N1CC(N2CC(c3ccc4c(c3)Nc3nccc(N5CCOCC5)c3CO4)C2)C1 [Compound 88]; 1050 M⁻¹ s⁻¹
C=CC(=O)N1CC[C@@H](N2CCC(c3ccc4c(c3)Nc3nccc(N5CCOCC5)c3CO4)CC2)C1 (single isomer, unassigned) [Compound 44]; 1570 M⁻¹ s⁻¹
C=CC(=O)N1CC(N2CC[C@@H](c3ccc4c(c3)Nc3nccc(N5CCOCC5)c3CO4)[C@@H](C)C2)C1 (mixture of isomers) [Compound 70]; 634 M⁻¹ s⁻¹
C=CC(=O)N1CC(N2CCC(c3cc(C)c4c(c3)Nc3nccc(-c5cnn(C)c5)c3CO4)CC2)C1 [Compound 99]; 1440 M⁻¹ s⁻¹
C=CC(=O)N1CC(N2CC(c3cc(C#N)c4c(c3)Nc3nccc(N5CCOCC5)c3CO4)C2)C1 [Compound 253]; 989 M⁻¹ s⁻¹
C#Cc1cc(C2CCN(C3CN(C(=O)C=C)C3)CC2)cc2c1OCc1c(C3CCOCC3)ccnc1N2 [Compound 118]; 1620 M⁻¹ s⁻¹
C=CC(=O)N1CC(N2CCC(c3cc4c(cn3)OCc3c(N5CCOCC5)ccnc3N4)CC2)C1 [Compound 83]; 782 M⁻¹ s⁻¹

----------
molecular target: CDK7/cyclinH/MAT1 trimeric complex (Homo sapiens); experiment: In vitro CDK7 assay, potency of irreversible covalent inhibitors (kinact/KI), coupled PK/LDH ADP readout at 340 nm; details: read-out: CDK7 (20 nM enz.) (kobs/[I], M^−1*s^−1), 20 nM enzyme
QUANTITY_NAME: kinact/KI (M⁻¹ s⁻¹)

C=CC(=O)Nc1ccc(CCc2ccc3c(c2)Nc2nccc(N4CCOCC4)c2CO3)cn1 [Compound 65]; 1160
C=CC(=O)N1CC(N2CCC(c3cc4c(c(C#N)n3)OCc3c(C5CCOCC5)ccnc3N4)CC2)C1 [Compound 322]; 740
C#CCCN(C)C/C=C/C(=O)N1CC(N2CCC(c3cc(C)c4c(c3)Nc3nccc(C5CCOCC5)c3CO4)CC2)C1 [Compound 124]; 1550
C=CC(=O)N1CC(N2CCC(c3ccc4c(c3)Nc3nccc(-c5cnn(C)c5)c3[C@@H](C)O4)CC2)C1 (single isomer, unassigned) [Compound 233]; 1450
C=CC(=O)N1CC[C@H](N2CC(c3cc(C)c4c(c3)Nc3nccc(N5CCOCC5)c3[C@@H](C)O4)C2)C1 (single isomer, unassigned) [Compound 239]; 1040
C=CC(=O)N1CC[C@@H](N2CCC(c3cc(C)c4c(c3)Nc3nccc(-c5cnn(C)c5)c3CO4)CC2)C1 (single isomer, unassigned) [Compound 134]; 1530
CCOC(=O)/C=C/C(=O)N1CC(N2CCC(c3cc4c(c(C)n3)OCc3c(-c5cnn(C)c5)ccnc3N4)CC2)C1 [Compound 435]; 856
C#Cc1cc(C2CCN(C3CN(C(=O)C=C)C3)CC2)cc2c1OC(C)c1c(N3CCOCC3)ccnc1N2 (centres unmarked) [Compound 181]; 864
C=CC(=O)N1CC(N2CCC(c3cc(C#N)c4c(c3)Nc3nccc(N5CCOCC5)c3C(C)O4)CC2)C1 (centres unmarked) [Compound 342]; 633
C=CC(=O)N1CC(N2CCC(c3cc(C)c4c(c3)Nc3nccc(N5CCS(=O)(=O)CC5)c3CO4)CC2)C1 [Compound 75]; 1100
C=CC(=O)N1CC(N2CC(c3cc4c(c(C5CC5)n3)OCc3c(N5CCOCC5)ccnc3N4)C2)C1 [Compound 317]; 1060
CC#CC(=O)N1CCC(N2CC(c3cc4c(c(-c5ncc[nH]5)n3)OCc3c(N5CCOCC5)ccnc3N4)C2)CC1 [Compound 364]; 464
C=CC(=O)N1CCC(N2CCC(c3cc(C)c4c(c3)Nc3nccc(N5CCOCC5)c3CO4)CC2)CC1 [Compound 79]; 766
COC(=O)/C=C/C(=O)N1CC[C@H](N2CCC(c3cc4c(c(C)n3)OCc3c(-c5cnn(C)c5)ccnc3N4)CC2)C1 (single isomer, unassigned) [Compound 297]; 1240

----------
Overview of recorded Ki for various compounds
target: CDK7/cyclinH/MAT1 trimeric complex (Homo sapiens, UniProt P50613); experiment: In vitro CDK7 assay, potency of irreversible covalent inhibitors (kinact/KI), coupled PK/LDH ADP readout at 340 nm; conditions: CDK7 (20 nM enz.) (KI, μM), 20 nM enzyme
QUANTITY_NAME: Ki (µM)

C=CC(=O)N1CCC(N2CCC(c3cc4c(c(C)n3)O[C@H](C)c3c(N5CCOCC5)ccnc3N4)CC2)CC1 (single isomer, unassigned); 0.495
C=CC(=O)N1CCC(N2CC(c3cc(F)c4c(c3)Nc3nccc(N5CCOCC5)c3CO4)C2)CC1; 0.0603
C=CC(=O)N1CC(N2CCC(c3ccc4c(c3)Nc3nccc(C5CCOCC5)c3[C@H](C)O4)CC2)C1 (single isomer, unassigned) [Compound 104]; 0.431

----------
Overview of recorded Ki for various compounds
target: CDK7/cyclinH/MAT1 trimeric complex (Homo sapiens, UniProt P50613); test: In vitro CDK7 assay, potency of irreversible covalent inhibitors (kinact/KI), coupled PK/LDH ADP readout at 340 nm; details: CDK7 (20 nM enz.) (KI, μM), 20 nM enzyme
QUANTITY_NAME: Ki

Cc1nc(C2CCN([C@H]3CCN(C(=O)/C=C/C(=O)O)C3)CC2)cc2c1OCc1c(-c3cnn(C)c3)ccnc1N2 (single isomer, unassigned) [Compound 332]; 4.85 µM
C=CC(=O)N1CC(N2CCC(c3ccc4c(c3)Nc3ncc(Cl)c(N5CCS(=O)(=O)CC5)c3CO4)CC2)C1 [Compound 60]; 0.128 µM
C=CC(=O)N1CC[C@@H](N2CC(c3cc(C)c4c(c3)Nc3nccc(-c5cnn(C)c5)c3CO4)C2)[C@@H](F)C1 (mixture of isomers) [Compound 201]; 0.0701 µM
C=CC(=O)N1CC[C@H](N2CC(c3cc4c(c(C(F)(F)F)n3)OCc3c(-c5cnn(C)c5)ccnc3N4)C2)C1 (single isomer, unassigned) [Compound 497]; 0.0437 µM
C=CC(=O)N1CC(N2CCC(c3ccc4c(c3)Nc3nccc(N5CCOCC5)c3C(C)O4)CC2)C1 (stereo not drawn) [Compound 22]; 0.0524 µM
C=CC(=O)N1CC(N2CCC(c3cc4c(c(C)n3)OCc3c(-c5cnn(C)c5)ccnc3N4)CC2)C1 [Compound 314]; 0.0655 µM
C=CC(=O)N1CCC(N2CC(c3cc(F)c4c(c3)Nc3nccc(C5CCOCC5)c3[C@@H](C)O4)C2)CC1 (single isomer, unassigned) [Compound 153]; 0.0288 µM
CC#CC(=O)N1CC(N2CC(c3cc4c(c(C5CC5)n3)OCc3c(N5CCOCC5)ccnc3N4)C2)C1 [Compound 318]; 0.0441 µM
CC#CC(=O)N1CC[C@@H](N2CCC(c3cc4c(c(C)n3)OCc3c(N5CCOCC5)ccnc3N4)CC2)C1 (single isomer, unassigned) [Compound 310]; 0.115 µM
C#Cc1cc(C2CCN(C3CN(C(=O)C=C)C3)CC2)cc2c1O[C@H](C)c1c(N3CCOCC3)ccnc1N2 (single isomer, unassigned) [Compound 268]; 0.934 µM
C=CC(=O)N1CCC(N2CCC(c3cc4c(c(C)n3)O[C@@H](C)c3c(N5CCOCC5)ccnc3N4)CC2)CC1 (single isomer, unassigned) [Compound 411]; 3.4 µM
C=C(C(=O)N1CC(N2CCC(c3cc4c(c(C)n3)O[C@H](C)c3c(N5CCOCC5)ccnc3N4)CC2)C1)n1cccn1 (single isomer, unassigned) [Compound 526]; 0.0767 µM
